Biological target: T1, recombinant biotinylated human PAR2 extracellular domain (residues 1-75), N-terminal AviTag, C-terminal Flag … (human, UniProt P55085 26-75, biotin on the AviTag (enzymatic biotinylation))
T1 construct: also called Bio-human-PAR2 ECD; human PAR2 ECD; not shown: N-terminal AviTag (Avidity LLC); C-terminal Flag and poly Histidine tags
T1 sequence (P55085 26-75): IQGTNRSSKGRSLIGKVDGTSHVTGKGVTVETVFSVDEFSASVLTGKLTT
Assay: HTRF competition with Par0067 IgG, pH 6.0, scFv
endpoint_label: IC50 (nM)
Please state the figure in nM; there is no need to write the unit.

Answered cases to consult:
PaB670064 scFv (scFv, V domains shown, purified scFv; also called ZZ1KX6-B09) VH: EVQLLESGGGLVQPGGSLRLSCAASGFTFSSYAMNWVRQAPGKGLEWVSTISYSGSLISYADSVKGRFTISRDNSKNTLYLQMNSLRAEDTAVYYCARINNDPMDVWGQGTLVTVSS VL: SIELTQPPSVSVSPGQTASITCSGDNLGKKYVQWYQQKPGQSPVLVIYDDSNRPSGIPERFSGSNSGNTATLTISGTQAMDEADYYCHTWHHNPHTGETNHFGGGTKLTVL ... 290
PaB670105 scFv (scFv, V domains shown, purified scFv; also called ZZ1RD0-D01) VH: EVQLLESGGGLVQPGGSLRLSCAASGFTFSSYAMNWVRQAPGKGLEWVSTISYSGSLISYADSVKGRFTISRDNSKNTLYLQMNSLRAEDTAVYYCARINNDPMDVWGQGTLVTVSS VL: SIELTQPPSVSVSPGQTASITCSGDNLGKKYVQWYQQKPGQSPVLVIYDDSNRPSGIPERFSGSNSGNTATLTISGTQAMDEADYYCQHWHGNPHTGEHNHFGGGTKLTVL ... 496
PaB670097 scFv (scFv, V domains shown, purified scFv; also called ZZ1ODT-E11) VH: EVQLLESGGGLVQPGGSLRLSCAASGFTFSSYAMNWVRQAPGKGLEWVSTIHHSGHLHSYHHHVKGRFTISRDNSKNTLYLQMNSLRAEDTAVYYCARINNDPMDVWGQGTLVTVSS VL: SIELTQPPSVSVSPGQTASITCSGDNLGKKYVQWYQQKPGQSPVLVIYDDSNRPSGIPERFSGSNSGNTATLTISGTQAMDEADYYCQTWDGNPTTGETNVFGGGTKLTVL ... 77.9
PaB670034 scFv (scFv, V domains shown, purified scFv; also called ZZ1IGF-B11) VH: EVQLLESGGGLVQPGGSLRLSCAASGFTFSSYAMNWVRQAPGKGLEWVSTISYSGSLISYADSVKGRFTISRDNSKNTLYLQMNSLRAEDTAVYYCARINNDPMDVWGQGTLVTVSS VL: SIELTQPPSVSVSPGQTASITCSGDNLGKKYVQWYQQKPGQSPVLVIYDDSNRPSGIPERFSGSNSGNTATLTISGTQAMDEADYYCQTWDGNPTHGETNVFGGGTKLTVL ... 14.2
PaB670076 scFv (scFv, V domains shown, purified scFv; also called ZZ1NHH-F09) VH: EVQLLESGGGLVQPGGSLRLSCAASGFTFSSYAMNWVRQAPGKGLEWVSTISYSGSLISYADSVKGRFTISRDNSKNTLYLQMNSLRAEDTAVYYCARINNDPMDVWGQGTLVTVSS VL: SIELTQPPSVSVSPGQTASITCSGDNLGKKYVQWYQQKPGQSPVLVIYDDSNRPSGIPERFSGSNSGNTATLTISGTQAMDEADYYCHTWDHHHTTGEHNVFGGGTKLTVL ... 292

Requested field: IC50. Item: PaB670067 scFv (scFv, V domains shown, purified scFv; also called ZZ1KXE-A05) VH: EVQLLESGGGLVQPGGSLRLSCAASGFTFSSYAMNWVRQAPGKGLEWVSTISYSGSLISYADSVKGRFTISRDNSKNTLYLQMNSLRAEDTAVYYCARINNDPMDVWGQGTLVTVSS VL: SIELTQPPSVSVSPGQTASITCSGDNLGKKYVQWYQQKPGQSPVLVIYDDSNRPSGIPERFSGSNSGNTATLTISGTQAMDEADYYCHTWHHHPTHGEHNVFGGGTKLTVL
113
